Measured Total Cell Count accompanies every entry in the list below.
- System: U2OS
- assayInfo: Multiplex assay against U2OS
- Type: toxicity, cell-based
- measurementConditions: human, 24 h, 1 µM, compound concentration 1 uM, replicate 1

[
  {
    "compound": "O=C(Nc1ccc(-n2nc(-c3cccnc3)cc2C(F)(F)F)cn1)c1ccc(-c2ccccc2)c(F)c1 [BI 2049]",
    "experimentalValue": 136
  }
]

Q: Quick one: Total Cell Count of `Cc1ccc2nc(NCCN)c3ncc(C)n3c2c1.O=C(O)C(F)(F)F.O=C(O)C(F)(F)F` ?
Result: 309

Q: Quick one: Total Cell Count of `O=C(Nc1ccc(-c2ccnc(Nc3ccc(N4CCOCC4)cc3)n2)cc1)[C@@H]1CCCN1` ?
Result: 90

Q: Quick one: Total Cell Count of `CCOc1cc(C(=O)N2CCC(N3CCN(C)CC3)CC2)ccc1Nc1ncc2c(n1)N(C1CCCC1)c1ccccc1C(=O)N2C` ?
Result: 142

Q: Quick one: Total Cell Count of CCN1CCN(c2ccc(Nc3cc(N(C)C(=O)Nc4c(Cl)c(OC)cc(OC)c4Cl)ncn3)cc2)CC1 [INFIGRATINIB] ?
Result: 192

Q: Quick one: Total Cell Count of O=C(Cc1ccc(-c2ccc(OCCN3CCOCC3)cc2)cn1)NCc1ccccc1 [TIRBANIBULIN] ?
Result: 227

Q: Quick one: Total Cell Count of `CCc1cccc(CC)c1NC(=O)c1nn(C)c2c1CCc1cnc(Nc3ccc(N4CCN(C)CC4)cc3OC)nc1-2` ?
Result: 169

Q: Quick one: Total Cell Count of `O=C(Nc1cccnn1)N1CCC(=Cc2cccc(Oc3ccc(C(F)(F)F)cn3)c2)CC1` ?
Result: 250

Q: Quick one: Total Cell Count of CCCn1c(=O)c2[nH]c(-c3cnn(Cc4cccc(C(F)(F)F)c4)c3)nc2n(CC)c1=O [GS 6201] ?
Result: 2066
